measurement type: melting point

Use these answered entries as a reference point.
molecule: NCc1ccc(C(=O)CCCN2CCC(c3ccc(Cl)cc3)CC2)cc1
recorded measurement: 94 to 96 °C
--
molecule: Nc1nc2ccc(OS(=O)(=O)c3ccc(F)cc3)cc2[nH]1
recorded measurement: 192 °C
--
molecule: CC(=O)Oc1ccc2c(c1)C1C(OC(=O)C(C)(C)C)CC3(C)C(OC(=O)C(C)(C)C)CCC3C1CC2 (stereo unspecified)
recorded measurement: 143 to 146 °C
--
molecule: CNc1cc(C(F)(F)F)cc(N(CCN(C)C)C(=O)N(C)C)n1
recorded measurement: 101 to 103 °C

Task: Need melting point of `COC(=O)c1ccc(Cl)cn1` , thanks.
Output: 83 to 86 °C

Task: Need melting point of CCOC(=O)C(C)c1ccc(O)c(NC(C)=O)c1 (stereo unspecified) , thanks.
Output: 137 to 141 °C

* * *

melting point overview

Use these answered entries as a reference point.
compound: O=C(c1cc(Br)ccc1[N+](=O)[O-])C(Br)C(Br)c1ccc(Br)cc1 (stereo not drawn)
melting point: 200 to 201 °C
--
compound: NS(=O)(=O)c1cccc2c1SCC=C2
melting point: 214 to 216 °C
--
compound: CCCCCC(=O)Nc1ccc2ccn(CCCCCCCC#N)c2c1
melting point: 85 to 86 °C
--
compound: O=C(Nc1c(Cl)cccc1Cl)N1CCN(c2cnccn2)CC1
melting point: 177 to 179 °C
--
compound: COc1cc2c(=O)n(NS(C)(=O)=O)c(=O)[nH]c2cc1[N+](=O)[O-]
melting point: > 280 °C
--
compound: C#CCOC(=O)c1cccnc1C1=NC(C)(C(C)C)C(=O)N1 (stereo not drawn)
melting point: 188 to 190 °C
--
compound: Cc1ccc(-c2nnc(N3CCCCCC3)nc2-c2ccc(C)cc2)cc1
melting point: 162 to 164 °C
--
compound: COC(=O)Cc1ccc(C2=CC(=O)c3ccccc3C2=O)n1C
melting point: 89 to 90 °C

Task: Need melting point of `CCCCOC(=O)c1cc2c(cn1)[nH]c1ccccc12` , thanks.
Output: 211 to 212 °C

Task: Need melting point of `CC(C)c1cccc(C(C)C)c1NC(=O)N(Cc1ccc(N(C)C)cc1)c1ccc(C(F)(F)F)cc1` , thanks.
Output: 129 to 130 °C

Task: Need melting point of `O=C1CCc2c1sc1c2CCCC1` , thanks.
Output: 43 to 44 °C

Task: Need melting point of `COc1cccc2c1sc1[nH]c(=O)c(=O)[nH]c12` , thanks.
Output: > 300 °C

Task: Need melting point of `COc1ccc(-c2csc(NC(=O)c3cc4ccccc4cn3)n2)cc1OC` , thanks.
Output: 228 to 230 °C

Task: Need melting point of CC1(c2ccccc2)SC(=Nc2ccc(Cl)cc2)N(Nc2ccccc2)C1=O (stereo not drawn) , thanks.
Output: 53 to 54 °C

Task: Need melting point of CCCCCCCCCCCCCCCCCC1CC(O)C(CC)C(=O)O1 (racemic) , thanks.
Output: 101 to 102 °C

Task: Need melting point of CC(=O)OCC1OC(n2c3ncccc3c3c4c(c5c6cccnc6[nH]c5c32)C(=O)N(CO)C4=O)C(OC(C)=O)C(OC(C)=O)C1OC(C)=O (stereo not drawn) , thanks.
Output: > 300 °C

Task: Need melting point of `CCCO[C@@H](Cc1ccc(OCCc2nc(-c3ccc(-c4ccccc4)cc3)oc2C)c2ccccc12)C(=O)O` , thanks.
Output: 151 to 154 °C

* * *

measurement type: melting point

Use these answered entries as a reference point.
compound: Cc1cc(C(=O)O)cc(C)c1N=C1NCCN1
melting point: 116 to 117 °C
--
compound: COc1cc2c(cc1O)CCN(Cc1cccc(O)c1)C2
melting point: 177 to 178 °C
--
compound: Cc1oc(-c2ccccc2)nc1COc1ccc(COc2nn(C)cc2CC(=O)O)cn1
melting point: 139 to 140 °C
--
compound: O=C(OCC1OC(n2cc(F)c(=O)[nH]c2=O)CC1OCc1ccccc1)c1ccc2c(c1)OCO2 (configuration not stated)
melting point: 169 to 171 °C
--
compound: O=C(O)c1ccc(N(Cc2cncs2)c2ccc(OC(F)F)c(OC(F)F)c2)cc1
melting point: 144 to 146 °C
--
compound: O=C1OC(=O)C(F)=C1F
melting point: 170 to 173 °C
--
compound: CC(C)(CCCCCCNS(=O)(=O)c1ccc(Cl)cc1)C(=O)O
melting point: 95 to 96 °C
--
compound: C#CCOc1cccnc1Cl
melting point: 78 to 79 °C

Task: Need melting point of `NC(=O)N(O)CCNC(=O)CCc1ccccc1` , thanks.
Output: 165 to 167 °C

Task: Need melting point of `FC(F)(F)c1cc(Cl)ccc1N=C(Cl)n1cncn1` , thanks.
Output: 165 to 166 °C

Task: Need melting point of `COc1cc(I)cc2c(O)c(C(=O)NCc3ccc(Cl)cc3)cnc12` , thanks.
Output: 241 to 243 °C

Task: Need melting point of `Cc1c(C(=O)N[C@@H](Cc2ccc(OCc3ccsc3)cc2)C(=O)O)oc2cc(-c3ccc(Cl)cc3)ccc12` , thanks.
Output: 111 to 113 °C

* * *

melting point overview

Use these answered entries as a reference point.
compound: CC(=O)c1ccc(NCCCN2CCC(c3noc4cc(F)ccc34)CC2)c(O)c1
melting point: 150 to 152 °C
--
compound: Cn1cc(C2=CCN(CCCn3nnc4ccccc4c3=O)CC2)c2ccccc21
melting point: 70 °C
--
compound: CN(C(=O)c1ccc(Nc2nccc(Nc3ccc(C(F)(F)F)cc3)n2)cc1)C1CCOCC1
melting point: 254 to 256 °C
--
compound: NC(=O)c1cc([N+](=O)[O-])ccc1I
melting point: 230 to 233 °C
--
compound: CC(C)(C)CCCOC1CCC2C3CC=C4CC(O[Si](C)(C)C(C)(C)C)CCC4(C)C3CCC12C (configuration not stated)
melting point: 138 to 139 °C

Task: Need melting point of CC(=O)OC1C(C)OC(OC(=N)C(Cl)(Cl)Cl)C(OC(C)=O)C1OC(C)=O (configuration not stated) , thanks.
Output: 60 to 63 °C

Task: Need melting point of CC(C)(NCCc1ccccc1)C(O)c1ccccc1 (configuration not stated) , thanks.
Output: 103 to 104 °C

Task: Need melting point of `Cc1cc(Cl)cc2c(-c3ccc(Cl)cc3)onc12` , thanks.
Output: 151 to 152 °C

Task: Need melting point of c1cc(OC2CN3CCC2CC3)no1 (configuration not stated) , thanks.
Output: 80 to 81 °C

Task: Need melting point of `COc1ccc(C2=NN(C3CCN(C(=O)c4ccccc4OC)CC3)C(=O)C(C)(C)C2)cc1OC` , thanks.
Output: 157 to 159 °C

Task: Need melting point of `COc1ccc(CNn2nnc3c(Cl)ncnc32)cc1` , thanks.
Output: 110 to 112 °C

Task: Need melting point of `Cc1nc(NC(=O)c2cnn3c(C(F)F)cc(-c4ccc(C(F)(F)F)cc4)nc23)sc1S(=O)(=O)N(C)CCO` , thanks.
Output: 216 °C

* * *

melting point overview

Use these answered entries as a reference point.
sample smiles: COc1ccc(COc2cccc(OC)c2C(C)=O)cc1
melting point: 105 to 107 °C
--
sample smiles: Clc1ccc2oc(Cl)nc2c1
melting point: 46 to 48 °C
--
sample smiles: CC1(c2ccc3c(c2)C(c2ccccc2)=NCC(=C[N+](=O)[O-])N3)OCCO1
melting point: 158 to 161 °C

Task: Need melting point of `COc1ccccc1CNc1ccc2cc(Nc3ncco3)ccc2n1` , thanks.
Output: 205 °C

Task: Need melting point of `COc1cc2c(cc1OC)N(C(=O)c1ccc(-c3ccccc3C(F)(F)F)c(C)c1)Cc1ccc(C(=O)N3CCC(=O)CC3)n1C2` , thanks.
Output: 132 to 134 °C

* * *

melting point overview

Use these answered entries as a reference point.
molecule: CCCCOc1ccc(S(=O)(=O)OC2CN(S(=O)(=O)c3ccc(OCCCC)cc3)C2)cc1
melting point: 90 to 93 °C

molecule: O=C(O)CCCc1cc2cc(C(F)(F)F)ccc2n1S(=O)(=O)c1ccc2c(c1)CCN2
melting point: 175 °C

molecule: Cc1cc(CCC(=O)O)cc(-c2nc(=O)c3ccccc3s2)n1
melting point: 233 to 235 °C

Note: attention shifts to another entry.
Task: Need melting point of `C#CCOc1cc(-c2ncnc(C(F)F)c2Cl)c(F)cc1Cl` , thanks.
Output: 93 to 95 °C

* * *

melting point overview

sample smiles: COc1cccc2c(CN3CC=C(/C=C/c4ccccc4)CC3)coc12
recorded measurement: 152 to 153 °C

sample smiles: CN(C)c1ncc2c(=O)n(CCN3CCCCC3)sc2n1
recorded measurement: 128 to 129 °C

Note: attention shifts to another entry.
Task: Need melting point of `CS(=O)(=O)c1ccc(-c2cnn(-c3ccc(F)c(F)c3)c(=O)c2Oc2ccc(Br)cc2)cc1` , thanks.
Output: 196 to 199 °C

Sourced from a melting point compilation (Tetko et al.; mined from patent text by program, amines drawn as free bases though some values may be those of a salt)
